// provenance: BindingDB's records for doi:10.1016/j.bioorg.2017.02.010

# STUDY SYSTEM: Acetylcholinesterase (Electrophorus electricus)
# Sequence (O42275 whole entry): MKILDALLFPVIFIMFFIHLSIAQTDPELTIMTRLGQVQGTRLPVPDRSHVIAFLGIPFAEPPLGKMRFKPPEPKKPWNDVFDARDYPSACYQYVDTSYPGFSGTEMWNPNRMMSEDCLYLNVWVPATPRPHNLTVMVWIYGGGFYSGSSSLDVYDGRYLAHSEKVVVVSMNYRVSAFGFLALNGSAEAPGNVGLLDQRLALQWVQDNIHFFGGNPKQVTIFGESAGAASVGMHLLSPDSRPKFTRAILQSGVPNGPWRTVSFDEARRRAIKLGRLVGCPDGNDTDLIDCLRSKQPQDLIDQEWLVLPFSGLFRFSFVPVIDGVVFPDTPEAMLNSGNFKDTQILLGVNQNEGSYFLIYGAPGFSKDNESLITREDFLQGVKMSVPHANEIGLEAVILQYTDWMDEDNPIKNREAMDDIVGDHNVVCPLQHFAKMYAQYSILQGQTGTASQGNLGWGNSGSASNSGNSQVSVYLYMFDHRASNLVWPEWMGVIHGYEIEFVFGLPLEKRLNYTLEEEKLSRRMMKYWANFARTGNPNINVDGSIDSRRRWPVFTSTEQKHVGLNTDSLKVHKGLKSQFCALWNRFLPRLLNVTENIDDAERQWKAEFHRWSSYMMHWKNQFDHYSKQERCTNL
// map IC50 onto a label; ranges band A = under 70 µM, band B = from 70 µM up to 90 µM, band C = 90 µM and over

Example results:
{"columns": ["COMPOUND", "LABEL"],
 "data": [
  ["CC(=O)NC(Cc1ccccc1F)C(=O)O (stereo not given)", "band A"],
  ["CC(=O)NC(Cc1ccc(F)cc1)C(=O)Nc1ccc(Cl)cc1 (stereo not given)", "band C"],
  ["CC(=O)NC(Cc1ccccc1F)C(=O)Oc1ccc(Cl)cc1 (stereo not given)", "band C"],
  ["CC(=O)NC(Cc1ccc(F)cc1)C(=O)Oc1ccc([N+](=O)[O-])cc1 (stereo not given)", "band A"],
  ["CC(=O)NC(Cc1ccc(F)cc1)C(=O)Oc1ccccc1 (stereo not given)", "band C"]
]}

Query: Category of CC(=O)NC(Cc1ccc(F)cc1)C(=O)Nc1ccccc1 (stereo not given) , please.
Reply: band C

Query: Same lookup for CC(=O)NC(Cc1cccc(F)c1)C(=O)Oc1ccc(Cl)cc1 (stereo not given) , please.
Reply: band C

Query: Similarly, CC(=O)NC(Cc1ccccc1F)C(=O)Nc1ccccc1 (stereo not given) ?
Reply: band B

Query: What would you report for CC(=O)NC(Cc1ccc(F)cc1)C(=O)Oc1ccc(Cl)cc1 (stereo not given) ?
Reply: band C

Query: Same read-out for CC(=O)NC(Cc1cccc(F)c1)C(=O)Nc1ccccc1 (stereo not given) ?
Reply: band B
